# measurementTarget: T1, human TL1A extracellular domain with N-terminal HIS and FLAG tag (human, UniProt O95150 72-251)
# T1 construct: the whole entry is named
# T1 sequence: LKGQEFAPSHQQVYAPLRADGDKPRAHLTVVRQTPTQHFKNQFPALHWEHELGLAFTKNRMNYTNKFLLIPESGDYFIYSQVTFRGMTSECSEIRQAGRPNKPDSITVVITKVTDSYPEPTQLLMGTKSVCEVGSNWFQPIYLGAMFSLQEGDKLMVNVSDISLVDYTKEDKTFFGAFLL
# protocolText: SPR Run 4, purified Ab captured on Protein A, TL1A 5 ug/mL, timepoint 44
Respond with Satisfied for TL1A Binding Level (Early) values of 100 RU and above, Not satisfied for values below.

The examples below pair each entry with its known result.
320-349 (antibody, human IgG1, name in Kabat numbering, V domains shown, human IgG1, lambda) VH: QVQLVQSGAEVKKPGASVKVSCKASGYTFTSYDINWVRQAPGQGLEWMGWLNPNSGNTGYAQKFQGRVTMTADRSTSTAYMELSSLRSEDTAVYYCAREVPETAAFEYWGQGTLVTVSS VL: QSVLTQPPSVSGAPGQRVTISCTSSSSDIGAGLGVHWYQQLPGTAPKLLIEGYYNRPSGVPDRFSGSKSGTSASLTITGLLPEDEGDYYCQSYDGALSALFGGGTKLTVLG :: Satisfied
320-328 (antibody, human IgG1, name in Kabat numbering, V domains shown, human IgG1, lambda) VH: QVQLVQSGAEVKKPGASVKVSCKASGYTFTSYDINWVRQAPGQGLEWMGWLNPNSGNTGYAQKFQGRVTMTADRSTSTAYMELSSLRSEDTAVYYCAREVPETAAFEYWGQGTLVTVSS VL: QSVLTQPPSVSGAPGQRVTISCTSSSSDIGAGLGVHWYQQLPGTAPKLLIEGYYNRPSGVPDRFSGSKSGTSASLTITGLLPEDEGDYYCQSHDGTLSALFGGGTKLTVLG :: Satisfied
320-337 (antibody, human IgG1, name in Kabat numbering, V domains shown, human IgG1, lambda) VH: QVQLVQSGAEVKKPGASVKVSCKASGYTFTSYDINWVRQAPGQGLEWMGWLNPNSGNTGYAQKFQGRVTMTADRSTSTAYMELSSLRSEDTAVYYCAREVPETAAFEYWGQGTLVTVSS VL: QSVLTQPPSVSGAPGQRVTISCTSSSSDIGAGLGVHWYQQLPGTAPKLLIEGYYNRPSGVPDRFSGSKSGTSASLTITGLLPEDEGDYYCQSYLGTLSALFGGGTKLTVLG :: Not satisfied

Now examine the next entry.
Exercise: Decide: TL1A Binding Level (Early) of 320-325 (antibody, human IgG1, name in Kabat numbering, V domains shown, human IgG1, lambda) VH: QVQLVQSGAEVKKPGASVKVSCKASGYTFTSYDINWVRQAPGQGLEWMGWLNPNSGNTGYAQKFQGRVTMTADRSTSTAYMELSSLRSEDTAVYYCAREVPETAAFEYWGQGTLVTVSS VL: QSVLTQPPSVSGAPGQRVTISCTSSSSDIGAGLGVHWYQQLPGTAPKLLIEGYYNRPSGVPDRFSGSKSGTSASLTITGLLPEDEGDYYCQSADGTLSALFGGGTKLTVLG >= 100 RU?
Key: Not satisfied
